Molecular target: T1, recombinant mouse DLL4 (C-terminally His-tagged extracellular domain, R&D Systems) (mouse, UniProt Q9JI71 27-532)
T1 construct: extracellular domain; also called rmDLL4; mDLL4
T1 sequence (Q9JI71 27-532): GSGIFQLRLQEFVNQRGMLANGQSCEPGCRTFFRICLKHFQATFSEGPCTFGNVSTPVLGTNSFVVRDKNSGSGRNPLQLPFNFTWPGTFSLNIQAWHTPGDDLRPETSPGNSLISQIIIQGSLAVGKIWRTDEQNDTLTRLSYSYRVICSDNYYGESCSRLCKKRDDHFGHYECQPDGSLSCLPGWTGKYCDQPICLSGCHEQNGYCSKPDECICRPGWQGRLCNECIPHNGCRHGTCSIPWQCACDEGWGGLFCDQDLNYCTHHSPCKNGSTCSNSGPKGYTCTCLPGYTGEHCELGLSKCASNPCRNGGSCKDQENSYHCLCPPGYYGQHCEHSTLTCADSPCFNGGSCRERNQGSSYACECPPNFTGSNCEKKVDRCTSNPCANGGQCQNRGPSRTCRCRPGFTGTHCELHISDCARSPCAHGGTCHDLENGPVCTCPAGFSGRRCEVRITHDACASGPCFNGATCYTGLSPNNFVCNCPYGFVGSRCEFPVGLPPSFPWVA
Assay: SPR (Biacore), rmDLL4
endpoint.label: log10 of koff (log10 of the value in s⁻¹)

binder	endpoint.label	value.measured
DLLBII133A09 (VHH, not shown: small tags and cut ends) VHH: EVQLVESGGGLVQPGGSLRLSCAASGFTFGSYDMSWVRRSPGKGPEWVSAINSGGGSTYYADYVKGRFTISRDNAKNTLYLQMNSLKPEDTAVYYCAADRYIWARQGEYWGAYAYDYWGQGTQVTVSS	log10 of koff	-2.57
DLLBII015 (VHH, not shown: small tags and cut ends) VHH: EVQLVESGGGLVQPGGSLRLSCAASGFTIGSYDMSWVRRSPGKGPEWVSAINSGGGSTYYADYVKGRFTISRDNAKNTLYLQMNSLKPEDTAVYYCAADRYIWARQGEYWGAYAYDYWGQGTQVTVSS	log10 of koff	-2.82
DLLBII101G08 (VHH, not shown: small tags and cut ends, parent VHH; also called 101G08 (wt); 101G8) VHH: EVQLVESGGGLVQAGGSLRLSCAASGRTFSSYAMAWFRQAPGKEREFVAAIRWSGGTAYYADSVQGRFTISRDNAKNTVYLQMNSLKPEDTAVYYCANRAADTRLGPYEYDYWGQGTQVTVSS	log10 of koff	-2.25
DLLBII133G05 (VHH, not shown: small tags and cut ends) VHH: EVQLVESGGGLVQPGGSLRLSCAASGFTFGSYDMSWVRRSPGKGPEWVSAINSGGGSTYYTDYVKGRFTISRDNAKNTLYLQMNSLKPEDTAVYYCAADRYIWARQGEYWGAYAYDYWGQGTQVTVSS	log10 of koff	-2.80
DLLBII129E11 (VHH, not shown: small tags and cut ends) VHH: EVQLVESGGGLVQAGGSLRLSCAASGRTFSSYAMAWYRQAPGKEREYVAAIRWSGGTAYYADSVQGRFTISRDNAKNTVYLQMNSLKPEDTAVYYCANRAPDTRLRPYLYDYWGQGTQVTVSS	log10 of koff	-3.54
DLLBII129B05 (VHH, not shown: small tags and cut ends) VHH: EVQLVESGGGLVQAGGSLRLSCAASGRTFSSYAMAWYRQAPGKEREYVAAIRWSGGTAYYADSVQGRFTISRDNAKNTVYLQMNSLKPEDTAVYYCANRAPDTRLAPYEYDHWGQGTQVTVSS	log10 of koff	-3.51
DLLBII115A05 (VHH, not shown: small tags and cut ends, parent VHH; also called 115A05 (wt); 115A5) VHH: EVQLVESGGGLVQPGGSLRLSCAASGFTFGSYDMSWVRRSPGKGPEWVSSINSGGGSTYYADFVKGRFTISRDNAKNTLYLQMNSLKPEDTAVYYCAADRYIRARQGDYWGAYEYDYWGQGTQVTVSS	log10 of koff	-2.04
DLLBII136C07 (VHH, not shown: small tags and cut ends) VHH: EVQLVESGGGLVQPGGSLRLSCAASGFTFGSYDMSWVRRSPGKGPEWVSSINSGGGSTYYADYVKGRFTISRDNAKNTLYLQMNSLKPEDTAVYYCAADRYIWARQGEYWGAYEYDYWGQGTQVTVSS	log10 of koff	-2.89
DLLBII129D08 (VHH, not shown: small tags and cut ends) VHH: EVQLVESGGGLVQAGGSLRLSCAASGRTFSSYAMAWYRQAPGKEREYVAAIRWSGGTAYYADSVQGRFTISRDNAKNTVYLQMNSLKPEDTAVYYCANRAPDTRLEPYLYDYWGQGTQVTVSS	log10 of koff	-3.70
